B1: minF1; a variant is named by its letters at N, in order (parent)
chain: GAGACCGCAACTGAAAAGTTGTTNNNNAANNNNGGNTNNATTTCTGCACGTAGAAGCAAAAGGC

# Variants of: B1
# METHOD_SUMMARY: fraction ligated after 30 min (ligated reads / total reads); higher = more ligase activity
# MEASUREMENT_PARAMETERS: with F1*subA RNA substrate (template-directed ligation), 42 °C
Exercise: for every item that follows, state its recorded fraction ligated.

1. GAGACCGCAACTGAAAAGTTGTTACAGAAGGATGGGTTGATTTCTGCACGTAGAAGCAAAAGGC [ACAGGGATGTG]: 0.00506
2. GAGACCGCAACTGAAAAGTTGTATCGAAATGGGGGTTGAATTTCTGCACGTAGAAGCAAAAGGC [TCGATGGGTGA T23A]: 0.000539
3. GAGACCGCAACTGAAAAGTTGTTATCGAATGGGGGTTGAATTTCTGCACGTAGAAGCAAAAGGC [ATCGTGGGTGA]: 0.00142
4. GAGACCGCAACTGAAAAGTTGTTAAGAAAGGATGGGTTAATTTCTGCACGTAGAAGCAAAAGGC [AAGAGGATGTA]: 0.000999

State recorded fraction ligated for all listed variants.
1. GAGACCGCAACTGAAAAGTTGTTCAGAATGGATGGGTTAATTTCTGCACGTAGAAGCAAAAGGC [CAGAGGATGTA A29T]
2. GAGACCGCAACTGAAAAGTTGTTACAGAAATGGGGTTGAATTTCTGCACGTAGAAGCAAAAGGC [ACAGATGGTGA]
3. GAGACCGCAACTGAAAAGTTGTATCAGAAATGGTGGTTGATTTCTGCACGTAGAAGCAAAAGGC [TCAGATGGGTG T23A G34T]
4. GAGACCGCAACTGAAAAGTTGTTATCAGTGGAGGGTTGAATTTCTGCACGTAGAAGCAAAAGGC [ATCAGGAGTGA A28G A29T]
5. GAGACCGCAACTGAAAAGTTGTTATAGAAAGGATGGGTTATTTCTGCACGTAGAAGCAAAAGGC [ATAGAGGAGTT G34T T37G]

Ans:
0.00385
0.00375
0.00324
0.0016
0.00132

State recorded fraction ligated for all listed variants.
1. GAGACCGCAACTGAAAAGTTGTTATCAGATGGTGGGTTAATTTCTGCACGTAGAAGCAAAAGGC [ATCATGGTGTA A28G]
2. GAGACCGCAACTGAAAAGTTGTATCAAAATGGATGGTTAATTTCTGCACGTAGAAGCAAAAGGC [TCAATGGAGTA T23A G34T]
3. GAGACCGCAACTGAAAAGTTGTTATAAATGGAGGGTTGAATTTCTGCACGTAGAAGCAAAAGGC [ATAAGGAGTGA A29T]

Ans:
0.0034
0.0178
0.00469

Q: What measured fraction ligated goes with GAGACCGCAACTGAAAAGTTGTATAGAAGGATGGGTTGAATTTCTGCACGTAGAAGCAAAAGGC [TAGAGATGTGA T23A A29G] ?
Ans: 0.00131
